Experiment: Plasma vasopressin concentrations and pharmacokinetics after IV or IM vasopressin
Format: in vivo, neonatal piglets
Details: pig, plasma; 8 IU/kg IM, 5 min after administration; anesthetized piglets, arterial blood; n = 5/group; median (IQR); read-out: Plasma vasopressin concentration
Experimental: Following surgical instrumentation and stabilization, a consecutively numbered, sealed brown envelope containing the group allocation was opened (Figure 1). […] Demographics of study piglets were recorded. Transonic flow probes, heart rate, and pressure transducer outputs, and Millar catheter were digitized and recorded with LabChart® 8.1.30, programming software (ADInstruments, Houston, TX, USA). […] Since pigs produce lysine vasopressin, endogenous vasopressin concentrations could not be quantified. […]
OBSERVABLE: level at 5 min (ng/mL)
One number for each entry, in ng/mL.

For this compound ( NC(=O)CC[C@@H]1NC(=O)[C@H](Cc2ccccc2)NC(=O)[C@H](Cc2ccc(O)cc2)NC(=O)[C@@H](N)CSSC[C@@H](C(=O)N2CCC[C@H]2C(=O)N[C@@H](CCCN=C(N)N)C(=O)NCC(N)=O)NC(=O)[C@H](CC(N)=O)NC1=O [vasopressin, arginine vasopressin] ), measured level at 5 min is 2.64

###

assay: Plasma vasopressin concentrations and pharmacokinetics after IV or IM vasopressin; type: in vivo, neonatal piglets; conditions: pig, plasma; 4 IU/kg IM; neonatal piglets; n = 5/group; median (IQR); read-out: Area under the curve from baseline to 10 min (AUC0–10) (converted)
OBSERVABLE: AUC(0-t) (ng·h/mL)
Numbers only, in ng·h/mL.

For this compound ( NC(=O)CC[C@@H]1NC(=O)[C@H](Cc2ccccc2)NC(=O)[C@H](Cc2ccc(O)cc2)NC(=O)[C@@H](N)CSSC[C@@H](C(=O)N2CCC[C@H]2C(=O)N[C@@H](CCCN=C(N)N)C(=O)NCC(N)=O)NC(=O)[C@H](CC(N)=O)NC1=O ), measured AUC(0-t) is 0.155

###

assay: Plasma vasopressin concentrations and pharmacokinetics after IV or IM vasopressin; type: in vivo, neonatal piglets; conditions: pig, plasma; 8 IU/kg IM; neonatal piglets; n = 5/group; median (IQR); read-out: Area under the curve from baseline to 10 min (AUC0–10) (converted)
OBSERVABLE: AUC(0-t) (ng·h/mL)
One number for each entry, in ng·h/mL.

For this compound ( NC(=O)CC[C@@H]1NC(=O)[C@H](Cc2ccccc2)NC(=O)[C@H](Cc2ccc(O)cc2)NC(=O)[C@@H](N)CSSC[C@@H](C(=O)N2CCC[C@H]2C(=O)N[C@@H](CCCN=C(N)N)C(=O)NCC(N)=O)NC(=O)[C@H](CC(N)=O)NC1=O ), measured AUC(0-t) is 0.339

###

test: Plasma vasopressin concentrations and pharmacokinetics after IV or IM vasopressin; type: in vivo, neonatal piglets; details: pig, plasma; 8 IU/kg IM, 10 min after administration; anesthetized piglets, arterial blood; n = 5/group; median (IQR); read-out: Plasma vasopressin concentration
OBSERVABLE: level at 10 min
// return the numeric value with its unit appended

For this compound ( NC(=O)CC[C@@H]1NC(=O)[C@H](Cc2ccccc2)NC(=O)[C@H](Cc2ccc(O)cc2)NC(=O)[C@@H](N)CSSC[C@@H](C(=O)N2CCC[C@H]2C(=O)N[C@@H](CCCN=C(N)N)C(=O)NCC(N)=O)NC(=O)[C@H](CC(N)=O)NC1=O [vasopressin, arginine vasopressin] ), measured level at 10 min is 2.83 ng/mL
